- Procedure Details: chemical genetic growth profiling, strain panel (AID 1159580);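 further: tested at 20 µM; growth read once vehicle control cultures reached saturation at 30 °C; lower values mean less growth of the strain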
- Setup Conditions: S. cerevisiae deletion strains, growth OD, locus YBR231C, strain swc5
Among all 5,500 compounds or so, about 2,000 (36%) were called active. Another 18% or so got no clear call; they are omitted. No stated cut-off is given here; in the data, active means normalized growth mostly below about 0.91 (no sharp cut-off); inconclusive means no clear call, values can overlap the other calls; inactive means mostly above about 0.92. The list shows a part of the results.
Your answer must be one of the following: active, inactive

Exercise: Please state the recorded outcome for this compound: CC(=O)Oc1ccc2c(c1)CCC1C2CCC2(C)C1CC(OC(C)=O)C2OC(C)=O (stereo unspecified)
Solution: inactive

Exercise: Field: outcome | Entry: CCCCC(=O)O[C@H]1CCC2C3CCc4cc(O)ccc4C3CC[C@@]21C (stereo partly specified)
Solution: inactive

Exercise: Would you mind telling me which call this test gave O=C1c2ccc(O)c(O)c2C(=O)c2c(O)ccc(O)c21 ?
Solution: active

Exercise: Record lookup: outcome of this test for CC(=O)OC1CCC2C3CCc4cc(O)ccc4C3CCC12C (stereo unspecified) ?
Solution: inactive

Exercise: Assay result, entry O=c1[nH]c2ccccc2n1C1CCN(CCCC(c2ccc(F)cc2)c2ccc(F)cc2)CC1 — outcome?
Solution: inactive

Exercise: What did this assay record as the result for CCOC(=O)C1=C(C)NC(C)=C(C(=O)OC)C1c1cccc([N+](=O)[O-])c1 (stereo unspecified) ?
Solution: inactive

Exercise: For CC(=O)Oc1ccc2c(c1)CCC1C2CC[C@@]2(C)C1CC[C@@H]2OC(C)=O (stereo partly specified) , which call appears in the assay record?
Solution: inactive

Exercise: Which outcome was entered for the compound O=C(CCCN1CC=C(n2c(=O)[nH]c3ccccc32)CC1)c1ccc(F)cc1 in this test?
Solution: inactive

Exercise: Please state the recorded outcome for this compound: COC(=O)C[C@H]1C(C)(C)[C@@H](OC(C)=O)[C@@H]2CC3C4CC(=O)O[C@@H](c5ccoc5)[C@]4(C)CCC3[C@@]1(C)C2=O (stereo partly specified)
Solution: inactive

Exercise: # fetch the recorded call for Nc1ncnc2nc[nH]c12 here
Solution: inactive

Exercise: Recorded test outcome, item CCC(=O)O[C@H]1CCC2C3CCc4cc(O)ccc4C3CC[C@@]21C (stereo partly specified)
Solution: inactive

Exercise: // param item: C[C@]12CCC3c4ccc(O)cc4CCC3C1CC[C@@H]2OC(=O)CCC1CCCC1 (stereo partly specified) ; yields the recorded call
Solution: inactive

Exercise: Assay outcome for CN1CCN(C(c2ccccc2)c2ccccc2)CC1 : what was it?
Solution: inactive

Exercise: Hello, I am checking results. What call was entered for Cc1ncc([N+](=O)[O-])n1CCO ?
Solution: inactive

Exercise: Which result was noted for this compound in the test: CC1(C)S[C@@H]2[C@H](NC(=O)COc3ccccc3)C(=O)N2[C@H]1C(=O)O
Solution: inactive

Exercise: Dear colleague, could you share the recorded outcome for C[C@]12C=CC(=O)C=C1CCC1C2CC[C@]2(C)C(=O)CCC12 (stereo partly specified) when you have a moment?
Solution: inactive

Exercise: Which result was noted for this compound in the test: Cc1cc(O)c2c(c1O)C(=O)c1c(O)cc(C)c(O)c1C2=O
Solution: inactive

Exercise: Could you please tell me the result logged for O=c1ccc2ccc(O)c(O)c2o1 in this assay?
Solution: inactive

Exercise: Record request — test call for CC(=O)O[C@H]1CC2CCC3C(CC[C@@]4(C)C3C[C@H]([N+]3(C)CCCCC3)[C@@H]4OC(C)=O)[C@@]2(C)C[C@@H]1[N+]1(C)CCCCC1 (stereo partly specified)
Solution: inactive

Exercise: Name the outcome recorded for O=C1c2ccccc2C(=O)c2c1ccc(O)c2O in the assay.
Solution: active

Exercise: So what was the verdict on O=C1c2ccccc2C(=O)c2c(O)c(O)cc(O)c21 in this test?
Solution: active

Taken from PubChem BioAssay AID1159580.
